# Test System: KRAS G12V (Homo sapiens, UniProt P01116, G12V)
# Sequence (P01116 1-188 isoform P01116-2 G12V): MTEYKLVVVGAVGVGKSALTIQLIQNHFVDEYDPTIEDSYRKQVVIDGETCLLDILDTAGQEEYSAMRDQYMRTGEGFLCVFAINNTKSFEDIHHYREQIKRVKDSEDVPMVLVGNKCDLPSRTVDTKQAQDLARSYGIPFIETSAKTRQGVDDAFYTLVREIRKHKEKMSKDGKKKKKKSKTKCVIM
# Assay Details: GDP-GTP exchange assay (bodipy-GDP/GppNHp, SOS1), KRAS G12V
# Assay type: biochemical
# Assay Conditions: KRAS G12V mutant; value for the most potent isomer quoted for certain compounds; read-out: G12V (KRAS G12V exchange assay IC50)
pIC50: −log10 of the molar value.
Readout Label: pIC50

As a guide, the following entries are already answered.
compound=Cc1nc2c(F)c(-c3cccc(Cl)c3Cl)c(CCC#N)cc2c2c1cc([C@H]1C[C@H](OC3CCCC3)CN1C(=O)C1CC1)n2[C@H]1[C@H]2CN[C@@H]1C2 test_system="KRAS G12V (Homo sapiens, UniProt P01116, G12V)" readout_label=pIC50 observed="≥ 7.00"
compound=Cc1nc2c(F)c(-c3cccc(Cl)c3Cl)c(CCC#N)cc2c2c1cc([C@H]1C[C@H](Oc3cccnc3OCC(F)(F)F)CN1C(=O)C1CC1)n2[C@H]1[C@H]2CN[C@@H]1C2 test_system="KRAS G12V (Homo sapiens, UniProt P01116, G12V)" readout_label=pIC50 observed="≥ 7.00"
compound=Cc1nc2c(F)c(-c3cccc(Cl)c3Cl)c(CCC#N)cc2c2c1cc([C@H]1C[C@H](OCC3CC(F)(F)C3)CN1C(=O)C1CC1)n2[C@H]1[C@H]2CN[C@@H]1C2 test_system="KRAS G12V (Homo sapiens, UniProt P01116, G12V)" readout_label=pIC50 observed="≥ 7.00"
compound=COc1ncc(Br)cc1O[C@H]1C[C@H](c2cc3c(C)nc4c(F)c(-c5cccc(Cl)c5Cl)c(CCC#N)cc4c3n2[C@H]2[C@H]3CN[C@@H]2C3)N(C(=O)C2CC2)C1 test_system="KRAS G12V (Homo sapiens, UniProt P01116, G12V)" readout_label=pIC50 observed="≥ 7.00"

Write down pIC50 measured for item N#CCCc1cc2c(nc(-c3ccc(N4CCCC4=O)nc3)c3cc([C@H]4C[C@H](OCc5c(F)cccc5F)CN4C(=O)C4CC4)n([C@H]4[C@H]5CN[C@@H]4C5)c32)c(F)c1-c1cccc(Cl)c1Cl
≥ 7.00

Write down pIC50 measured for item Cc1cn([C@H]2C[C@H](c3cc4c(C)nc5c(F)c(-c6cccc(Cl)c6Cl)c(CCC#N)cc5c4n3[C@H]3[C@H]4CN[C@@H]3C4)N(C(=O)C3CC3)C2)nn1
≥ 7.00

Write down pIC50 measured for item Cc1nc2c(F)c(-c3cccc(Cl)c3Cl)c(CCC#N)cc2c2c1cc([C@H]1C[C@H](OCc3c(F)cccc3F)CN1C(=O)c1ccccc1)n2[C@H]1[C@H]2CN[C@@H]1C2
≥ 7.00

Write down pIC50 measured for item Cc1nc2c(F)c(-c3cccc(Cl)c3Cl)c(CCC#N)cc2c2c1cc([C@H]1C[C@H](Oc3cc(N4CC(OC(F)F)C4)ccn3)CN1C(=O)C1CC1)n2[C@H]1[C@H]2CN[C@@H]1C2
≥ 7.00
